System Tested: GST-ALK5 (Homo sapiens, UniProt P36897)
Sequence (P36897 34-503): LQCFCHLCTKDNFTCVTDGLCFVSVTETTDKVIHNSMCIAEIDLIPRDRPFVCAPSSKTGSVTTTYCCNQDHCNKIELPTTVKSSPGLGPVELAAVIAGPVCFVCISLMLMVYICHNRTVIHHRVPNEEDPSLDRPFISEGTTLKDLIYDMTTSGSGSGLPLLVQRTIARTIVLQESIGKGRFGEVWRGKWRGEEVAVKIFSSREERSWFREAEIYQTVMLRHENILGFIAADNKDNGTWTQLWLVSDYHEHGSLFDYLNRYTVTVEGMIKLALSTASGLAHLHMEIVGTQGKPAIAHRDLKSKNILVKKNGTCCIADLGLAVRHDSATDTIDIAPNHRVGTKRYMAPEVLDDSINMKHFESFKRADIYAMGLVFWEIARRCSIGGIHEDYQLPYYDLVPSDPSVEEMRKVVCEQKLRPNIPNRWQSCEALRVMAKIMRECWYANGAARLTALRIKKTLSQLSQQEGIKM
Method Notes: In-vitro (enzyme) kinase assay, 384-well flashplate (Example 36)
Assay type: biochemical
Condition Description: GST-ALK5, GST-SMAD2 substrate, 3 mM ATP, 30° C., 45 min; read-out: TβR activity (Example 36)
pIC50: −log10 of the molar value. Where a name gives a salt, the structure may show the parent alone.
Listing: pIC50 of selected compounds

[[record]]
compound = "CCN1CCC(n2cc(-c3cncc(-c4cc(-c5cc(Cl)ccc5F)nc5ncccc45)c3)cn2)CC1 [compound 46]"
obs_value = "> 7.00"

[[record]]
compound = "Nc1ncc(-c2cc(-c3cc(Cl)ccc3F)nc3ncccc23)c2ccncc12 [compound 167]"
obs_value = "> 7.00"

[[record]]
compound = "Fc1ccc(F)c(-c2cc(-c3cncc(-c4cnn(CCCN5CCOCC5)c4)c3)c3cccnc3n2)c1 [compound 48]"
obs_value = "> 7.00"


Data request, read-out pIC50, for Fc1ccc(F)c(-c2cc(-c3cncc(-c4cccc(OCC5CCNCC5)c4)c3)c3cccnc3n2)c1 [compound 147]
6.00 to 7.00

Item: Nc1ncc(-c2cc(-c3ccccc3F)nc3ncccc23)c2ccncc12 [compound 72]
> 7.00

Item: CC1(C)CCNc2ccc(-c3cncc(-c4cc(-c5cc(Cl)ccc5F)nc5ncccc45)c3)cc21 [compound 146]
6.00 to 7.00

Item: CN1CCC(n2cc(-c3cncc(-c4cc(-c5ccccc5F)nc5ncccc45)c3)nn2)CC1 [compound 55]
> 7.00

Item: Nc1ncc(-c2cnn(C3CCNCC3)c2)cc1-c1cc(-c2cc(Cl)ccc2F)nc2ncccc12 [compound 13, dihydrochloride]
> 7.00

Item: COCCN1CCC(n2cc(-c3cncc(-c4cc(-c5ccccc5F)nc5ncccc45)c3)cn2)CC1 [compound 52]
> 7.00

Item: CN1CCN(c2ccnc(-c3cncc(-c4cc(-c5cc(Cl)ccc5F)nc5ncccc45)c3)c2)CC1 [compound 132]
> 7.00

Item: O=C1COc2ccc(-c3cncc(-c4cc(-c5cc(Cl)ccc5F)nc5ncccc45)c3)cc2N1 [compound 131]
> 7.00

====

Listing: pIC50 of selected compounds
System Tested: GST-ALK5 (Homo sapiens)
Method Notes: In-vitro (enzyme) kinase assay, 384-well flashplate (Example 36)
Type: biochemical
Condition Description: GST-ALK5, GST-SMAD2 substrate, 3 mM ATP, 30° C., 45 min; read-out: TβR activity (Example 36)
pIC50: −log10 of the molar value.

[[record]]
sample_smiles = "Fc1ccc(Cl)cc1-c1cc(-c2ccc(-c3ccccc3)nc2)c2cccnc2n1"
obs_value = "< 5.00"

[[record]]
sample_smiles = "NCCc1ccccc1-c1cncc(-c2cc(-c3cc(Cl)ccc3F)nc3ncccc23)c1"
obs_value = "5.00 to 6.00"

[[record]]
sample_smiles = "CN1CCN(c2ccc(-c3cncc(-c4cc(-c5cc(F)ccc5F)nc5ncccc45)c3)nn2)CC1"
obs_value = "6.00 to 7.00"

[[record]]
sample_smiles = "CN1CCc2cc(-c3cncc(-c4cc(-c5cc(Cl)ccc5F)nc5ncccc45)c3)ccc21"
obs_value = "6.00 to 7.00"

[[record]]
sample_smiles = "CN1CCN(c2nc(-c3cncc(-c4cc(-c5ccccc5F)nc5ncccc45)c3)no2)CC1"
obs_value = "> 7.00"


Data request, read-out pIC50, for COc1cccc(-c2cncc(-c3cc(-c4cc(Cl)ccc4F)nc4ncccc34)c2)n1
6.00 to 7.00

Item: Fc1ccccc1-c1cc(-c2cncc(-c3ccc(N4CCNCC4)nc3)n2)c2cccnc2n1
> 7.00
